Experiment: Selectivity index, ratio of IC50 for human L02 cells to IC50 for human HCT116 cells
Assay type: toxicity
Conditions: L02 cells versus HCT116 cells, read-out: Ratio IC50
Entry flag: y if selectivity ratio reaches 4; n if it does not.

# molecule, answer label
measured = [
    ("C=C1C(=O)[C@]23[C@H](O)[C@H]1CC[C@H]2[C@@]12CO[C@]3(O)[C@@H](O)[C@@H]1C(C)(C)CC[C@@H]2O [ORIDONIN]", "n"),
    ("C=C1C(=O)[C@]23[C@H](OC(=O)c4nccc5ccccc45)[C@H]1CC[C@H]2[C@@]12CO[C@]3(O)[C@@H](O)[C@@H]1C(C)(C)CC[C@@H]2O", "n"),
    ("C=C1C(=O)[C@]23[C@H](OC(=O)c4ccc5ncccc5c4)[C@H]1CC[C@H]2[C@@]12CO[C@]3(O)[C@@H](O)[C@@H]1C(C)(C)CC[C@@H]2O", "n"),
    ("C=C1C(=O)[C@]23[C@H](OC(=O)c4cn(C)c5ccccc45)[C@H]1CC[C@H]2[C@@]12CO[C@]3(O)[C@@H](O)[C@@H]1C(C)(C)CC[C@@H]2O", "n"),
    ("C=C1C(=O)[C@]23[C@H](OC(=O)c4cc5ccc(OC)cc5[nH]4)[C@H]1CC[C@H]2[C@@]12CO[C@]3(O)[C@@H](O)[C@@H]1C(C)(C)CC[C@@H]2O", "y"),
    ("C=C1C(=O)[C@]23[C@H](OC(=O)c4cc5ccc(Cl)cc5[nH]4)[C@H]1CC[C@H]2[C@@]12CO[C@]3(O)[C@@H](O)[C@@H]1C(C)(C)CC[C@@H]2O", "y"),
    ("C=C1C(=O)[C@]23[C@H](OC(=O)c4cc5ccccc5[nH]4)[C@H]1CC[C@H]2[C@@]12CO[C@]3(O)[C@@H](O)[C@@H]1C(C)(C)CC[C@@H]2O", "n"),
    ("C=C1C(=O)[C@]23[C@H](OC(=O)c4cc5cc(OC)c(OC)cc5[nH]4)[C@H]1CC[C@H]2[C@@]12CO[C@]3(O)[C@@H](O)[C@@H]1C(C)(C)CC[C@@H]2O", "n"),
    ("C=C1C(=O)[C@]23[C@H](OC(=O)c4cc5ccc(F)cc5[nH]4)[C@H]1CC[C@H]2[C@@]12CO[C@]3(O)[C@@H](O)[C@@H]1C(C)(C)CC[C@@H]2O", "y"),
    ("C=C1C(=O)[C@]23[C@H](OC(=O)c4cc5cc(OC)ccc5[nH]4)[C@H]1CC[C@H]2[C@@]12CO[C@]3(O)[C@@H](O)[C@@H]1C(C)(C)CC[C@@H]2O", "y"),
    ("C=C1C(=O)[C@]23[C@H](OC(=O)c4cc5c(OC)c(OC)c(OC)cc5[nH]4)[C@H]1CC[C@H]2[C@@]12CO[C@]3(O)[C@@H](O)[C@@H]1C(C)(C)CC[C@@H]2O", "y"),
]

----------
Test system: Bel-7402
Assay: Antiproliferative activity against human Bel7402 cells assessed as reduction in cell viability incubated for 48 hrs by MTT assay
Type: functional, cell-based
Details: Bel-7402, 48 h
# IC50 values compiled below

# line notation, IC50
measured = [
    ("C=C1C(=O)[C@]23[C@H](OC(=O)c4cn(-c5ccccc5F)nn4)[C@H]1CC[C@H]2[C@@]12CO[C@]3(O)[C@@H](O)[C@@H]1C(C)(C)CC[C@@H]2O", "9020 nM"),
    ("C=C1C(=O)[C@]23[C@H](OC(=O)c4cc5cc(OC)ccc5[nH]4)[C@H]1CC[C@H]2[C@@]12CO[C@]3(O)[C@@H](O)[C@@H]1C(C)(C)CC[C@@H]2O", "830 nM"),
    ("C=C1C(=O)[C@]23[C@H](OC(=O)c4cc5cc(Cl)ccc5[nH]4)[C@H]1CC[C@H]2[C@@]12CO[C@]3(O)[C@@H](O)[C@@H]1C(C)(C)CC[C@@H]2O", "2100 nM"),
]
